# key: entry, value: n-fold stimulation
ASSAYED_TARGET: soluble guanylate cyclase (sGC) (Bos taurus, UniProt P16068+P19687)
Construct: The sGC which was employed had been isolated from bovine lung; from tissue; host or cells: bovine lung
Sequence (P16068 whole entry): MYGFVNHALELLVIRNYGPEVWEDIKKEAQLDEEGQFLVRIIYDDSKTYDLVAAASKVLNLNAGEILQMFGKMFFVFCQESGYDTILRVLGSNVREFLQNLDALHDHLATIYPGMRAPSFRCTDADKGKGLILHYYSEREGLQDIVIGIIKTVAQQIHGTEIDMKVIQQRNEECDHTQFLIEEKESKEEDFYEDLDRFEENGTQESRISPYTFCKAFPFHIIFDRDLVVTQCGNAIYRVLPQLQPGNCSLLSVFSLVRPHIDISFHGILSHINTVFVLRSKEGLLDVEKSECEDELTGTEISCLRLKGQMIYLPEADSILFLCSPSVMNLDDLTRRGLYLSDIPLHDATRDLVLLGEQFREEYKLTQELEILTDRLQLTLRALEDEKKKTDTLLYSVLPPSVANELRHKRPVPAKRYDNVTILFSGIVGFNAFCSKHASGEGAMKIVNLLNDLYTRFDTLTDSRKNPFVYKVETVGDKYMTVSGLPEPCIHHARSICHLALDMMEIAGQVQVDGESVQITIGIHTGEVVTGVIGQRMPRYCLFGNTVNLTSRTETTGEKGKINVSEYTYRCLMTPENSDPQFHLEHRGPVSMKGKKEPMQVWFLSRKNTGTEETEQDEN
Sequence (P19687 whole entry): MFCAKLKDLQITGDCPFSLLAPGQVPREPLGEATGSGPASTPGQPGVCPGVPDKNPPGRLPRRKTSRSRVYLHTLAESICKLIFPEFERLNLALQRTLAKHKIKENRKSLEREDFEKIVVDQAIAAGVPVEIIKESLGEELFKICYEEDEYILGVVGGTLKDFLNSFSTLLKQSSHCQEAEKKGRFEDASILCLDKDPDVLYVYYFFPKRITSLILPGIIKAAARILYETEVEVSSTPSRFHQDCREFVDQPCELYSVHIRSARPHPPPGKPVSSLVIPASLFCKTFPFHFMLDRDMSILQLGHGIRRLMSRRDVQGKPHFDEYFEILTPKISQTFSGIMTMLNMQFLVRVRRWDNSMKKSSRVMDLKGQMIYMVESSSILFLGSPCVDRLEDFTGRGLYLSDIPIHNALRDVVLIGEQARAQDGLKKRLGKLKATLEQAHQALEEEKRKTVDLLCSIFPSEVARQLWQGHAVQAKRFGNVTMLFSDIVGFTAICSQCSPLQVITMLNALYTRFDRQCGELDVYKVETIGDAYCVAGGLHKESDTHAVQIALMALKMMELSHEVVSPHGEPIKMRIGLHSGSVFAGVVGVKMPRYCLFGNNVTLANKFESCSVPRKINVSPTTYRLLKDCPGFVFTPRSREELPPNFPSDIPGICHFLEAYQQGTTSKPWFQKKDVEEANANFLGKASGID
METHOD_NOTES: Activation of the soluble guanylate cyclase (cGMP enzyme immunoassay)
Assay type: biochemical
CONDITION_LABEL: sGC isolated from bovine lung; concentration 50 μM; n-fold stimulation of basal enzyme activity = [cGMP]test substance/[cGMP]control
EXPERIMENTAL_READOUT: n-fold stimulation

- COMPOUND: "COc1cccc(CCN2C(=O)c3ccccc3C2(O)c2ccncc2)c1 (stereo not shown)"
  ASSAYED_TARGET: "soluble guanylate cyclase (sGC) (Bos taurus, UniProt P16068+P19687)"
  OBS_VALUE: "11.8-fold"
- COMPOUND: "COc1cccc(CCN2C(=O)c3c(F)c(F)c(F)c(F)c3C2(O)c2ccc(F)cc2)c1 (stereo not shown)"
  ASSAYED_TARGET: "soluble guanylate cyclase (sGC) (Bos taurus, UniProt P16068+P19687)"
  OBS_VALUE: "9.5-fold"
- COMPOUND: "OCc1ccc(-c2nn(Cc3ccccc3)c3ccccc23)o1 [A, reference compound]"
  ASSAYED_TARGET: "soluble guanylate cyclase (sGC) (Bos taurus, UniProt P16068+P19687)"
  OBS_VALUE: "2-fold"
- COMPOUND: "COc1cccc(CCN2C(=O)c3ccccc3C2(O)c2ccc(F)cc2)c1 (stereo not shown)"
  ASSAYED_TARGET: "soluble guanylate cyclase (sGC) (Bos taurus, UniProt P16068+P19687)"
  OBS_VALUE: "16-fold"
